# Read-out: Early growth response protein 1 (EGR1) transcription factor, EGR1 (gene 1958)
# Method: LTEA_HepaRG_EGR1: Life Technologies and Expression Analysis (LTEA) Assay for Early growth response protein 1 (EGR1) transcription factor using HepaRG (AID 2283490)
# Run conditions: mRNA level, 48 h; actives raise or lower the signal
Activity calls are given as the source filed them. The calls were made as follows: active = hit-call score of the fitted dose curve at least 0.9, where 1 is the maximum; inactive = score below 0.9.
Labels: active, inactive

Compound: CCOP(=O)(OCC)Oc1nc(Cl)c(Cl)cc1Cl
Group label: active
//
Compound: CCSC(=O)N1CCCCCC1
Group label: inactive
//
Compound: Cc1c(COC(=O)[C@@H]2[C@H](/C=C(\Cl)C(F)(F)F)C2(C)C)cccc1-c1ccccc1
Group label: inactive
//
Compound: CS(=O)(=O)c1ccc(C(=O)C2C(=O)CCCC2=O)c([N+](=O)[O-])c1
Group label: inactive
//
Compound: N#Cc1c[nH]cc1-c1cccc2c1OC(F)(F)O2
Group label: active
//
Compound: Clc1nc(Cl)nc(Nc2ccccc2Cl)n1
Group label: inactive
//
Compound: CCCCOCN(C(=O)CCl)c1c(CC)cccc1CC
Group label: inactive
//
Compound: CC(C)=CC1C(C(=O)OCc2coc(Cc3ccccc3)c2)C1(C)C (centres undefined)
Group label: inactive
//
Compound: CC(C)Oc1cccc(NC(=O)c2ccccc2C(F)(F)F)c1
Group label: inactive
//
Compound: C=C(C)CN(CC)c1c([N+](=O)[O-])cc(C(F)(F)F)cc1[N+](=O)[O-]
Group label: inactive
//
Compound: Cc1ccc(N=CN(C)C=Nc2ccc(C)cc2C)c(C)c1
Group label: inactive
//
Compound: CO/N=C(/C1=NOCCO1)c1ccccc1Oc1ncnc(Oc2ccccc2Cl)c1F
Group label: active
//
Compound: CCOC(=O)C(C)OC(=O)c1cc(Oc2ccc(C(F)(F)F)cc2Cl)ccc1[N+](=O)[O-] (centres undefined)
Group label: active
//
Compound: CC(C)N1C(=O)N(c2ccccc2)CSC1=NC(C)(C)C
Group label: inactive
//
Compound: CS(=O)(=O)c1cc(C(F)(F)F)ccc1C(=O)c1cnoc1C1CC1
Group label: inactive
//
Compound: CCCCC(O)(Cn1cncn1)c1ccc(Cl)cc1Cl (centres undefined)
Group label: active
//
Compound: Cc1nc(N(C)C)nc(OC(=O)N(C)C)c1C
Group label: inactive
//
Compound: CCCCC(C#N)(Cn1cncn1)c1ccc(Cl)cc1 (centres undefined)
Group label: inactive
//
Compound: Cc1cc(C)nc(Nc2ccccc2)n1
Group label: inactive

* * *

# Method: BSK_3C_SRB: Viability Assessment in the BioMAP Diversity Plus: 3C Assay (AID 2283023);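 also: cells read 24 h after compound dosing; fitted both ways against DMSO so a hit may be signal rise or drop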
# Run conditions: primary human endothelial cells (HUVEC)
Calls of active or inactive are those of the source. Rule for the calls: active = hit-call score of the fitted dose curve at least 0.9, where 1 is the maximum; inactive = score below 0.9.
Labels: active, inactive

Compound: Clc1cccc(C(Cl)(Cl)Cl)n1
Group label: inactive
//
Compound: C=CCOC(=O)C(C)(C)OC(=O)c1cc(-n2c(=O)cc(C(F)(F)F)n(C)c2=O)ccc1Cl
Group label: inactive
//
Compound: CCCCOCN(C(=O)CCl)c1c(CC)cccc1CC
Group label: active
//
Compound: CCNP(=S)(OC)O/C(C)=C/C(=O)OC(C)C (centres undefined)
Group label: inactive
//
Compound: COC(=O)NC(=S)Nc1ccccc1NC(=S)NC(=O)OC
Group label: inactive
//
Compound: Cc1cnc(C2=NC(C)(C(C)C)C(=O)N2)c(C(=O)O)c1 (centres undefined)
Group label: inactive
//
Compound: Nc1c(Cl)c(Cl)nc(C(=O)O)c1Cl
Group label: inactive
//
Compound: Clc1nc(Cl)nc(Nc2ccccc2Cl)n1
Group label: inactive
//
Compound: N#Cc1c(Cl)cccc1Cl
Group label: inactive
//
Compound: COCC(=O)N(c1c(C)cccc1C)C(C)C(=O)OC (centres undefined)
Group label: inactive
//
Compound: O=c1n(Cl)c(=O)n(Cl)c(=O)n1Cl
Group label: inactive
//
Compound: CCCCC(C#N)(Cn1cncn1)c1ccc(Cl)cc1 (centres undefined)
Group label: inactive
//
Compound: CCCCC(O)(Cn1cncn1)c1ccc(Cl)cc1Cl (centres undefined)
Group label: inactive
//
Compound: COC(=O)c1c(C(F)F)nc(C(F)(F)F)c(C2=NCCS2)c1CC(C)C
Group label: active
//
Compound: CC(C)Nc1nc(Cl)nc(NC(C)C)n1
Group label: inactive
//
Compound: CC(C)C1(C)N=C(c2ncccc2C(=O)O)NC1=O (centres undefined)
Group label: inactive
//
Compound: CC(C)=CC1C(C(=O)OCc2coc(Cc3ccccc3)c2)C1(C)C (centres undefined)
Group label: active
//
Compound: CSC(=O)c1c(C(F)F)nc(C(F)(F)F)c(C(=O)SC)c1CC(C)C
Group label: active
//
Compound: Nc1cnn(-c2ccccc2)c(=O)c1Cl
Group label: inactive
